organism: Rattus norvegicus; test: Open TG-GATES - Regimen: Single; format: toxicity, organism-based, Sprague-Dawley; parameters: regimen Single, gender Male, age 6 weeks; details: in vivo, po, 0 mg/kg, 3 h, tissue Blood, route gavage, dose level Control
As shown below, each of these compounds has a reported Plat value.
Express your answer in x10_4/uL, writing the number without its unit.

Below: 3 compounds and their reported Plat.
> print(dat)
                                   compound  propertylabel         u  experimentalvalue
1  O=C(O)c1cc(/N=N/c2ccc(S(=O)(=O)Nc3ccccn3)cc2)ccc1O           Plat  x10_4/uL              116.8
2          CCc1cc(C(N)=S)ccn1 [ETHIONAMIDE]           Plat  x10_4/uL              118.5
3     COc1ccc(Cc2nccc3cc(OC)c(OC)cc23)cc1OC           Plat  x10_4/uL              108.7

Prompt line: Consider the compound shown here: CC(=O)Oc1ccccc1C(=O)O What is its recorded Plat?
Response line: 118.6

Prompt line: Could you share which Plat value was measured for O=C(O)c1cn(C2CC2)c2cc(N3CCNCC3)c(F)cc2c1=O ?
Response line: 103.5

Prompt line: Fill blank: measured Plat of the compound CN(C)CCC=C1c2ccccc2CCc2ccccc21 is ____.
Response line: 103.9

Prompt line: Could you share which Plat value was measured for NC(=O)N/N=C/c1ccc([N+](=O)[O-])o1 ?
Response line: 114.3

Prompt line: Given the compound Clc1ccccc1CN1CCc2sccc2C1 , what is its reported Plat?
Response line: 123.5

Prompt line: Which Plat reading was recorded for the compound NC(=O)N1c2ccccc2C=Cc2ccccc21 [CARBAMAZEPINE] ?
Response line: 131

Prompt line: Which Plat value is on record for Cn1c(=O)c2[nH]cnc2n(C)c1=O.O ?
Response line: 119

----------
species on record: Rattus norvegicus; assay: Open TG-GATES - Regimen: Daily Repeat; type: toxicity, organism-based, Sprague-Dawley; set-up: regimen Daily Repeat, gender Male, age 6 weeks; conditions: in vivo, po, 0 mg/kg, […], tissue Blood, route gavage, dose level Control, time 28 day
propertyLabel: Ht (%)
Please give a number only; it is taken to be in %.

compound	Ht [%]
Cn1c(=O)c2[nH]cnc2n(C)c1=O.O [THEOPHYLLINE]	42.6
Clc1ccccc1CN1CCc2sccc2C1 [TICLOPIDINE]	41.4
CN(C)CCC=C1c2ccccc2CCc2ccccc21 [AMITRIPTYLINE]	43.8
COc1ccc2c(c1)c(CC(=O)O)c(C)n2C(=O)c1ccc(Cl)cc1 [INDOMETHACIN]	44.4
NC(=O)N1c2ccccc2C=Cc2ccccc21 [CARBAMAZEPINE]	43.3
CSc1ccc2c(c1)N(CCC1CCCCN1C)c1ccccc1S2 (stereo not given) [THIORIDAZINE]	45.5
COc1ccc(Cc2nccc3cc(OC)c(OC)cc23)cc1OC [PAPAVERINE]	43.8
NC(=O)N/N=C/c1ccc([N+](=O)[O-])o1 [NITROFURAZONE]	44.5
CC(=O)Oc1ccccc1C(=O)O [ASPIRIN]	45.3
CCc1cc(C(N)=S)ccn1 [ETHIONAMIDE]	46

Prompt line: For the compound shown here, C[C@H](CS)C(=O)N1CCC[C@H]1C(=O)O [CAPTOPRIL] , give the reported Ht.
Response line: 43.7

Prompt line: Which Ht reading was recorded for the compound O=C(O)c1cn(C2CC2)c2cc(N3CCNCC3)c(F)cc2c1=O [CIPROFLOXACIN] ?
Response line: 44

Prompt line: Request the reported Ht associated with CO[C@H]1/C=C/O[C@@]2(C)Oc3c(C)c(O)c4c(O)c(c(/C=N/N5CCN(C)CC5)c(O)c4c3C2=O)NC(=O)/C(C)=C\C=C\[C@H](C)[C@H](O)[C@@H](C)[C@@H](O)[C@@H](C)[C@H](OC(C)=O)[C@@H]1C [RIFAMPIN]
Response line: 47

Prompt line: Form field: reported Ht of CCCC(CCC)C(=O)O [VALPROIC ACID]
Response line: 42.7

Prompt line: Return reported Ht; argument: O=C(O)c1cc(/N=N/c2ccc(S(=O)(=O)Nc3ccccn3)cc2)ccc1O [SULFASALAZINE]
Response line: 43.1

----------
species: Rattus norvegicus; assay: Open TG-GATES - Regimen: Single; type: toxicity, organism-based, Sprague-Dawley; parameters: regimen Single, gender Male, age 6 weeks; settings: in vivo, po, 0 mg/kg, 24 h, tissue Blood, route gavage, dose level Control
propertyLabel: Eos (%)
Respond with the bare value in %.

Field: example entries. Status: answers known.
> print(dat)
                            molecule  propertylabel  experimentalvalue
1     CN(C)CCC=C1c2ccccc2CCc2ccccc21            Eos                  1
2              CC(=O)Oc1ccccc1C(=O)O            Eos                  1
3  NC(=O)N/N=C/c1ccc([N+](=O)[O-])o1            Eos                0.8

Kindly consider the entry below.
Prompt line: Which value of Eos has been reported for O=C(O)c1cn(C2CC2)c2cc(N3CCNCC3)c(F)cc2c1=O in the records?
Response line: 1

----------
species: Rattus norvegicus; assay: Open TG-GATES - Regimen: Daily Repeat; assay type: toxicity, organism-based, Sprague-Dawley; set-up: regimen Daily Repeat, gender Male, age 6 weeks; settings: in vivo, po, 0 mg/kg, […], tissue Blood, route gavage, dose level Control, time 14 day
Hb: recorded values
Kindly provide the numeric value in g/dL only, without the unit symbol.

Would you please look over these solved cases?
> print(dat)
                                   compound  experimentalvalue
1  C[C@H](CS)C(=O)N1CCC[C@H]1C(=O)O [CAPTOPRIL]               14.3
2  COc1ccc2c(c1)c(CC(=O)O)c(C)n2C(=O)c1ccc(Cl)cc1 [INDOMETHACIN]               13.9
3    Clc1ccccc1CN1CCc2sccc2C1 [TICLOPIDINE]               14.3
4  O=C(O)c1cn(C2CC2)c2cc(N3CCNCC3)c(F)cc2c1=O [CIPROFLOXACIN]                 14

In the following, a different compound is considered.
Prompt line: Give its Hb value. Item: CSc1ccc2c(c1)N(CCC1CCCCN1C)c1ccccc1S2 (stereo not given) [THIORIDAZINE]
Response line: 14.4

----------
species: Rattus norvegicus; experiment: Open TG-GATES - Regimen: Daily Repeat; type: toxicity, organism-based, Sprague-Dawley; set-up: regimen Daily Repeat, gender Male, age 6 weeks; conditions: in vivo, po, 0 mg/kg, […], tissue Plasma, route gavage, dose level Control, time 7 day
Parameter: gamma-GTP. Scope: all listed entries.
Dear colleague, please return just the value in IU/L, with no unit written.

Recorded results for 5 compounds are shown here.
compound	gamma-GTP [IU/L]
C[C@H](CS)C(=O)N1CCC[C@H]1C(=O)O	1.2
NC(=O)N/N=C/c1ccc([N+](=O)[O-])o1	1
Cn1c(=O)c2[nH]cnc2n(C)c1=O.O	1.8
CO[C@H]1/C=C/O[C@@]2(C)Oc3c(C)c(O)c4c(O)c(c(/C=N/N5CCN(C)CC5)c(O)c4c3C2=O)NC(=O)/C(C)=C\C=C\[C@H](C)[C@H](O)[C@@H](C)[C@@H](O)[C@@H](C)[C@H](OC(C)=O)[C@@H]1C	1.8
Clc1ccccc1CN1CCc2sccc2C1	1.2

Prompt line: What measured gamma-GTP goes with CSc1ccc2c(c1)N(CCC1CCCCN1C)c1ccccc1S2 (stereo not given) ?
Response line: 1.4

----------
organism: Rattus norvegicus; assay: Open TG-GATES - Regimen: Single; format: toxicity, organism-based, Sprague-Dawley; design: regimen Single, gender Male, age 6 weeks; settings: in vivo, po, 0 mg/kg, 24 h, tissue Blood, route gavage, dose level Control
propertyLabel: MCHC (%)
Numeric answer only, unit % assumed.

Consider the reported MCHC for these molecules:
> print(dat)
                                   molecule  propertylabel  experimentalvalue
1  O=C(O)c1cn(C2CC2)c2cc(N3CCNCC3)c(F)cc2c1=O           MCHC               33.4
2  COc1cc2c(c3oc(=O)c4c(c13)CCC4=O)[C@@H]1C=CO[C@@H]1O2           MCHC               33.9
3          C[C@H](CS)C(=O)N1CCC[C@H]1C(=O)O           MCHC               33.1
4     COc1ccc(Cc2nccc3cc(OC)c(OC)cc23)cc1OC           MCHC               33.6
5                     CC(=O)Oc1ccccc1C(=O)O           MCHC               36.6

Prompt line: Item under review: Clc1ccccc1CN1CCc2sccc2C1 . Reported MCHC?
Response line: 35.4

Prompt line: Field request: MCHC | item: Cn1c(=O)c2[nH]cnc2n(C)c1=O.O
Response line: 33.7

Prompt line: Look up MCHC: O=C(O)c1cc(/N=N/c2ccc(S(=O)(=O)Nc3ccccn3)cc2)ccc1O
Response line: 34
